residual activity: recorded values
target: PLK2 (human) (UniProt Q9NYY3); test: radiometric filter-binding kinase assay, Kinase HotSpot; details: compound 0.5 µM; ATP 10 µM
Sequence (Q9NYY3 whole entry, looked up): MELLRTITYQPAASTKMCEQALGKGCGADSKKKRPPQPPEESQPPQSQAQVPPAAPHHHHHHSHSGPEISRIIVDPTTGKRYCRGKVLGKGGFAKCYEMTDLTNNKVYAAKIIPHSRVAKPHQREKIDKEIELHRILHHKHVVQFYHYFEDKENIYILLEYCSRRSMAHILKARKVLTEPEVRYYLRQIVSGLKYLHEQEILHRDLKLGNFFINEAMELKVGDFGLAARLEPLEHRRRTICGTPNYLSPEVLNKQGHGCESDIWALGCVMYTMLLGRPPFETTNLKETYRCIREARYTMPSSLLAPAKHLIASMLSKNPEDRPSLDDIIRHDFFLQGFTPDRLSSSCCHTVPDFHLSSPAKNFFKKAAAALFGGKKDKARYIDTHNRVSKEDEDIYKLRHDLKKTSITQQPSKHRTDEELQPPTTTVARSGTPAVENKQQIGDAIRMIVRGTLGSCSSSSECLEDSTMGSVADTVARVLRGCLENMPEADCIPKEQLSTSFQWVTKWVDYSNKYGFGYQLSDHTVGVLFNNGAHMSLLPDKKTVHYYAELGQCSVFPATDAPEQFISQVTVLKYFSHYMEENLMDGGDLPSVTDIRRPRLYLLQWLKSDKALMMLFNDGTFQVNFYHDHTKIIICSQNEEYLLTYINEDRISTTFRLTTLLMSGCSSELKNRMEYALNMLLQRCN
measurement_type: residual activity (%)

structure_smiles=COc1cc2ncnc(Nc3ccc(F)c(Cl)c3)c2cc1OCCCN1CCOCC1 measurement_type="residual activity" quantity_unit=% recorded_number=100
structure_smiles=CC(C)(C)c1nc2c3ccc(F)cc3c3c(=O)[nH]ccc3c2[nH]1 measurement_type="residual activity" quantity_unit=% recorded_number=92.6
structure_smiles=O=C1Nc2cc(Br)ccc2/C1=C1/Nc2ccccc2/C1=N\O measurement_type="residual activity" quantity_unit=% recorded_number=98.9
structure_smiles=COc1ccc(-c2cnc3c(-c4ccsc4)cnn3c2)cc1 measurement_type="residual activity" quantity_unit=% recorded_number=100
structure_smiles=CC(C)[C@H](CO)Nc1nc(Nc2cccc(Cl)c2)c2ncn(C(C)C)c2n1 measurement_type="residual activity" quantity_unit=% recorded_number=102

###

target: FRK (human) (UniProt P42685); assay: radiometric filter-binding kinase assay, Kinase HotSpot; details: compound 0.5 µM; ATP 10 µM
Sequence (P42685 whole entry, looked up): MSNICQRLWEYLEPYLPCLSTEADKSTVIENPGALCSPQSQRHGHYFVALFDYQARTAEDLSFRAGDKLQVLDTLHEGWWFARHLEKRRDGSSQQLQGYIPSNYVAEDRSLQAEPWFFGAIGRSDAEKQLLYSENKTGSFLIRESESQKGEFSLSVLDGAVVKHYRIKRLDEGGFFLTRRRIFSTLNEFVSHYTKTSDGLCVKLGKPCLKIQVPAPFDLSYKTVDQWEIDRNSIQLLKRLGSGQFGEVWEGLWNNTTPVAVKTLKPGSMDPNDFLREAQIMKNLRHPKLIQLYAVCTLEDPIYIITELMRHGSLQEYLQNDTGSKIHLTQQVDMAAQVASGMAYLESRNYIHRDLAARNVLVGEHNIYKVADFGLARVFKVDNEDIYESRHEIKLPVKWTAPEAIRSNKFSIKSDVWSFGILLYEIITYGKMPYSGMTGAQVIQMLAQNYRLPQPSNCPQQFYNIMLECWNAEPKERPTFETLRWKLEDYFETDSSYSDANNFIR
measurement_type: residual activity

structure_smiles=Oc1ccc(-c2nc(-c3ccc(F)cc3)c(-c3ccncc3)[nH]2)cc1 measurement_type="residual activity" result=90.4%
structure_smiles=CC(C)n1cnc2c(Nc3cccc(Cl)c3)nc(NCCO)nc21 measurement_type="residual activity" result=94.2%
structure_smiles=NC(=O)c1ccc(N(C(N)=O)c2c(F)cccc2F)nc1-c1ccc(F)cc1F measurement_type="residual activity" result=106%
structure_smiles=CC(C)(C)c1nc2c3ccc(F)cc3c3c(=O)[nH]ccc3c2[nH]1 measurement_type="residual activity" result=104%
structure_smiles=CCCNC(=O)Nc1ccc(Oc2ncnc3cc(OC)c(OC)cc23)cc1Cl measurement_type="residual activity" result=87.2%
structure_smiles=Nc1n[nH]c2nnc(-c3c(-c4ccccc4)nn4ccccc34)cc12 measurement_type="residual activity" result=101%
structure_smiles=O=C1Nc2ccccc2/C1=C\c1c(Cl)[nH]c2ccccc12 measurement_type="residual activity" result=100%
structure_smiles=COc1cc2nccc(Oc3ccc(NC(=S)NC(=O)c4ccccc4C)cc3)c2cc1OC measurement_type="residual activity" result=27.5%
structure_smiles=Cc1cc2ncc(-c3ccccc3)nc2cc1C measurement_type="residual activity" result=99.1%
structure_smiles=CCN1/C(=C/C(C)=O)Sc2ccc(OC)cc21 measurement_type="residual activity" result=99.5%
structure_smiles=Nc1nc(Nc2ccc(S(N)(=O)=O)cc2)nn1C(=O)c1c(F)cccc1F measurement_type="residual activity" result=90.9%

###

molecular target: DMPK (human) (UniProt Q09013); assay: radiometric filter-binding kinase assay, Kinase HotSpot; details: compound 0.5 µM; ATP 10 µM
Sequence (Q09013 whole entry, looked up): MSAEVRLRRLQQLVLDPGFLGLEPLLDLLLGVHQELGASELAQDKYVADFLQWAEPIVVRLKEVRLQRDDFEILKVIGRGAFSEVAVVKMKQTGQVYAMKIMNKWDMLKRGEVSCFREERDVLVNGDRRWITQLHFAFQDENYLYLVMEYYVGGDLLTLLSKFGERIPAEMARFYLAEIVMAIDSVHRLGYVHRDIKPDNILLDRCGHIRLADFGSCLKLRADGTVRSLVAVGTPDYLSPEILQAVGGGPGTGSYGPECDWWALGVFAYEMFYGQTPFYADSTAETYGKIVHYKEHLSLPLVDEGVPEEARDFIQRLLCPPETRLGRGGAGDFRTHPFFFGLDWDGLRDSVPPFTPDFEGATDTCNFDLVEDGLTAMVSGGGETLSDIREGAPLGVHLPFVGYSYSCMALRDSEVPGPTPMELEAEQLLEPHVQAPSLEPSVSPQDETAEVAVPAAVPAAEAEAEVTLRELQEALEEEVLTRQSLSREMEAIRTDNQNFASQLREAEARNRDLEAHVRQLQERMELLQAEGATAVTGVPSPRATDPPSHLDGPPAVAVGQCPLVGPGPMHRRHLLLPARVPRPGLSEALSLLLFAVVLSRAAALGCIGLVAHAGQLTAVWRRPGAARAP
Collected residual activity values appear next to each entry.
measurement_type: residual activity (%)

compound=Clc1ccc(Nc2nnc(Cc3ccncc3)c3ccccc23)cc1 recorded_number=102
compound=CCN1/C(=C/C(C)=O)Sc2ccc(OC)cc21 recorded_number=101
compound=COc1cc2ncnc(Nc3ccc(F)c(Cl)c3)c2cc1OCCCN1CCOCC1 recorded_number=90.1
compound="CS(=O)c1ccc(-c2nc(-c3ccc(F)cc3)c(-c3ccncc3)[nH]2)cc1 (stereo unspecified)" recorded_number=103
compound=O=C1Nc2cc(Br)ccc2/C1=C1/Nc2ccccc2/C1=N\O recorded_number=124
compound=C#Cc1cccc(Nc2ncnc3cc(OCCOC)c(OCCOC)cc23)c1 recorded_number=96.9
compound=Nc1nc(Nc2ccc(S(N)(=O)=O)cc2)nn1C(=O)c1c(F)cccc1F recorded_number=93.2
compound=O=c1cc(-c2cccc3c2Sc2ccccc2S3)oc(N2CCOCC2)c1 recorded_number=94.8
compound=O=C1Cc2c([nH]c3ccc([N+](=O)[O-])cc23)-c2ccccc2N1 recorded_number=91.6
compound=Cc1ccc(NC(=O)c2ccc(CN3CCN(C)CC3)cc2)cc1Nc1nc(-c2cccnc2)cs1 recorded_number=104
compound=O=C1Nc2ccccc2/C1=C\c1c(Cl)[nH]c2ccccc12 recorded_number=101
compound=CC(C)(C)c1nc2c3ccc(F)cc3c3c(=O)[nH]ccc3c2[nH]1 recorded_number=105
compound=Cc1cc2ncc(-c3ccccc3)nc2cc1C recorded_number=102
compound=COc1ccc(-c2cnc3c(-c4ccsc4)cnn3c2)cc1 recorded_number=100
compound="O=C(NC(NC(=S)Nc1ccc(F)c([N+](=O)[O-])c1)C(Cl)(Cl)Cl)C(c1ccccc1)c1ccccc1 (stereo unspecified)" recorded_number=85.5
compound=CC(C)n1cnc2c(Nc3cccc(Cl)c3)nc(NCCO)nc21 recorded_number=98.5

###

Measured residual activity values are reported for all entries that follow.
target: TLK2 (human); assay: radiometric filter-binding kinase assay, Kinase HotSpot; conditions: compound 0.5 µM; ATP 10 µM
measurement_type: residual activity (%)

compound=O=C(Nc1ccc(Cl)cc1)c1ccccc1NCc1ccncc1 target_desc="TLK2 (human)" recorded_number=97.3
compound=Oc1ccc(-c2nc(-c3ccc(F)cc3)c(-c3ccncc3)[nH]2)cc1 target_desc="TLK2 (human)" recorded_number=97.4
compound=CCCNC(=O)Nc1ccc(Oc2ncnc3cc(OC)c(OC)cc23)cc1Cl target_desc="TLK2 (human)" recorded_number=99.5
compound=Cc1ccc(NC(=O)c2ccc(CN3CCN(C)CC3)cc2)cc1Nc1nc(-c2cccnc2)cs1 target_desc="TLK2 (human)" recorded_number=94.5
compound="CSc1nc(-c2ccc(F)cc2)c(-c2ccnc(NC(C)c3ccccc3)c2)[nH]1 (stereo not given)" target_desc="TLK2 (human)" recorded_number=106
compound=COc1cc2nccc(Oc3ccc(NC(=S)NC(=O)c4ccccc4C)cc3)c2cc1OC target_desc="TLK2 (human)" recorded_number=85.3
compound=CC(C)[C@H](CO)Nc1nc(Nc2cccc(Cl)c2)c2ncn(C(C)C)c2n1 target_desc="TLK2 (human)" recorded_number=94.7
compound=NC(=O)c1ccc(N(C(N)=O)c2c(F)cccc2F)nc1-c1ccc(F)cc1F target_desc="TLK2 (human)" recorded_number=95.7
compound=Cc1cc2ncc(-c3ccccc3)nc2cc1C target_desc="TLK2 (human)" recorded_number=100
compound="CS(=O)c1ccc(-c2nc(-c3ccc(F)cc3)c(-c3ccncc3)[nH]2)cc1 (stereo not given)" target_desc="TLK2 (human)" recorded_number=96.5
compound=COc1ccc(-c2cnc3c(-c4ccsc4)cnn3c2)cc1 target_desc="TLK2 (human)" recorded_number=96.2
compound=O=c1cc(N2CCNCC2)oc2c(-c3ccccc3)cccc12 target_desc="TLK2 (human)" recorded_number=94.8
compound=C#Cc1cccc(Nc2ncnc3cc(OCCOC)c(OCCOC)cc23)c1 target_desc="TLK2 (human)" recorded_number=85.9
compound=Clc1ccc(Nc2nnc(Cc3ccncc3)c3ccccc23)cc1 target_desc="TLK2 (human)" recorded_number=102
compound=COc1cc2ncnc(Nc3ccc(F)c(Cl)c3)c2cc1OCCCN1CCOCC1 target_desc="TLK2 (human)" recorded_number=80.4

###

molecular target: UniProtKB Q15303; experiment: radiometric filter-binding kinase assay, Kinase HotSpot; details: compound 0.5 µM; ATP 10 µM
Sequence (Q15303 whole entry, looked up): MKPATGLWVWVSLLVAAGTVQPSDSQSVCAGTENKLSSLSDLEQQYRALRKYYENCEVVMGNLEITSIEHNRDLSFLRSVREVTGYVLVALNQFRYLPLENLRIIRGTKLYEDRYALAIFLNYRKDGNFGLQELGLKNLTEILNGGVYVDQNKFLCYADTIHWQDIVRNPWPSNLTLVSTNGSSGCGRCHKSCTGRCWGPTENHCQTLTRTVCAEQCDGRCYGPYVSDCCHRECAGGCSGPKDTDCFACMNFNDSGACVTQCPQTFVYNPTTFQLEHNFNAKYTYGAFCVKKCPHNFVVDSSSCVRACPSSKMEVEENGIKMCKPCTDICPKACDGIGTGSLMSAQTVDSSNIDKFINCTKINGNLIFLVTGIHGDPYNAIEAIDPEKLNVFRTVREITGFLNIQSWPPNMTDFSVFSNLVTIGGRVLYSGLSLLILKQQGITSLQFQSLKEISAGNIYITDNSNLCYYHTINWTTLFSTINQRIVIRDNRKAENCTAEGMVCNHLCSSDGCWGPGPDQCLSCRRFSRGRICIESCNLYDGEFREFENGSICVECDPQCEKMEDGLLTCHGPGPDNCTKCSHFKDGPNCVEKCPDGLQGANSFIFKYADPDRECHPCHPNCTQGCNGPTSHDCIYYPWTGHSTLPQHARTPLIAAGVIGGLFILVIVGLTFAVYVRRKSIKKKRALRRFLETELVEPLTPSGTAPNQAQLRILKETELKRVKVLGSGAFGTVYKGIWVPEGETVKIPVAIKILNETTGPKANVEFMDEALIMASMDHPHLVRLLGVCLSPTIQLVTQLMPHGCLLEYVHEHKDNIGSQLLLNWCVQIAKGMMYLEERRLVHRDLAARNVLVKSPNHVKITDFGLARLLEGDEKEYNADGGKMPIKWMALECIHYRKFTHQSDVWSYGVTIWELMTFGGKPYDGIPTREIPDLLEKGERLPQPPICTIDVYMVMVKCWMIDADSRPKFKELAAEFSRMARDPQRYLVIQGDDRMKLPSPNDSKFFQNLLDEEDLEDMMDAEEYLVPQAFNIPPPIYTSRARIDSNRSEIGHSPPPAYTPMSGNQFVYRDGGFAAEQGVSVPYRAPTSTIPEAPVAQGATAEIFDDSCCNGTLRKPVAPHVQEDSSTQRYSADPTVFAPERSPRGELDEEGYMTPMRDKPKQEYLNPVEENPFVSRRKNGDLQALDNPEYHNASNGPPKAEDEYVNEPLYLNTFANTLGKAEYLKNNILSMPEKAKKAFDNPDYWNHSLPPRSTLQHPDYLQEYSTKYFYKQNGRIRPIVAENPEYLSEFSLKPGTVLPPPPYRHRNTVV
Label not met if residual activity falls below 90%; label met in every other case.

molecule=O=c1cc(N2CCNCC2)oc2c(-c3ccccc3)cccc12 target_desc="UniProtKB Q15303" assigned_class=met
molecule=Nc1nc(Nc2ccc(S(N)(=O)=O)cc2)nn1C(=S)Nc1c(F)cccc1F target_desc="UniProtKB Q15303" assigned_class=met
molecule=C#Cc1cccc(Nc2ncnc3cc(OCCOC)c(OCCOC)cc23)c1 target_desc="UniProtKB Q15303" assigned_class="not met"
molecule=Clc1ccc(Nc2nnc(Cc3ccncc3)c3ccccc23)cc1 target_desc="UniProtKB Q15303" assigned_class=met
molecule=Nc1nc(Nc2ccc(S(N)(=O)=O)cc2)nn1C(=O)c1c(F)cccc1F target_desc="UniProtKB Q15303" assigned_class=met
molecule=Oc1ccc(-c2nc(-c3ccc(F)cc3)c(-c3ccncc3)[nH]2)cc1 target_desc="UniProtKB Q15303" assigned_class="not met"
molecule=O=C1Nc2cc(Br)ccc2/C1=C1/Nc2ccccc2/C1=N\O target_desc="UniProtKB Q15303" assigned_class=met
molecule="O=C(NC(NC(=S)Nc1ccc(F)c([N+](=O)[O-])c1)C(Cl)(Cl)Cl)C(c1ccccc1)c1ccccc1 (stereo not given)" target_desc="UniProtKB Q15303" assigned_class=met
molecule=CC(C)(C)c1nc2c3ccc(F)cc3c3c(=O)[nH]ccc3c2[nH]1 target_desc="UniProtKB Q15303" assigned_class=met
molecule=Cc1ccc(NC(=O)c2ccc(CN3CCN(C)CC3)cc2)cc1Nc1nc(-c2cccnc2)cs1 target_desc="UniProtKB Q15303" assigned_class=met
molecule=O=C(Nc1ccc(Cl)cc1)c1ccccc1NCc1ccncc1 target_desc="UniProtKB Q15303" assigned_class="not met"
molecule=Cc1cc2ncc(-c3ccccc3)nc2cc1C target_desc="UniProtKB Q15303" assigned_class=met
molecule=CC(C)n1cnc2c(Nc3cccc(Cl)c3)nc(NCCO)nc21 target_desc="UniProtKB Q15303" assigned_class=met
molecule=COc1ccc(-c2cnc3c(-c4ccsc4)cnn3c2)cc1 target_desc="UniProtKB Q15303" assigned_class=met

Data provenance is the kinase profiling compilation of Christmann-Franck et al. (2016).
